Consider the following molecules; for each one, report its CC50 at 72 h.
- ASSAY NOTES: Cytotoxicity against human HeLa cells assessed as reduction in cell viability after 3 days by XTT assay
- Type: cell-based
The answer is to be given in µM; state only the numeric part.

Task: # input molecule: "C1=C(/C=C/c2ccncc2)COc2ccccc21" ; wanted: its CC50 at 72 h
Result: 75

Task: What measured CC50 at 72 h goes with "C1=C(/C=C\c2ccncc2)COc2ccccc21" ?
Result: 50

Task: Endpoint output: CC50 at 72 h of "Clc1ccc2c(c1)C=C(/C=C/c1cccnc1)CO2" . Value?
Result: 37.5

Task: CC50 at 72 h for "O=c1c(/C=C/c2ccncc2)coc2ccc(Cl)cc12" ?
Result: 150

* * *

- ASSAY NOTES: Cytotoxicity against human HeLa cells assessed as reduction in cell viability after 3 days by XTT assay
- Format: cell-based
- APPLIED CONDITIONS: read-out: MNCC
What MNTC at 72 h was measured for each of the following?

Task: Dear colleague, I am looking for the recorded MNTC at 72 h of the following compound: "O=c1c(/C=C/c2ccccn2)coc2ccccc12"
Result: > 200 µM

Task: Name the reported MNTC at 72 h value associated with the compound "C1=C(/C=C/c2ccccn2)COc2ccccc21"
Result: > 50 µM

Task: // returns reported MNTC at 72 h for input "O=c1c(/C=C\c2cccnc2)coc2ccccc12"
Result: > 200 µM

Task: Returns the measured MNTC at 72 h for the input compound. Input: "Clc1ccc2c(c1)C=C(/C=C/c1ccccn1)CO2"
Result: > 50 µM

Task: Suppose we examine the compound "O=c1c(/C=C/c2ccncc2)coc2ccccc12" ; what MNTC at 72 h value has been reported?
Result: > 100 µM

Task: Which MNTC at 72 h is reported for this compound? "O=c1c(/C=C/c2ccccn2)coc2ccc(Cl)cc12"
Result: > 50 µM

* * *

- ASSAY NOTES: Cytotoxicity against human HeLa cells assessed as reduction in cell viability after 3 days by XTT assay
- Type: cell-based
ASSAY ENDPOINT: CC50 at 72 h

Task: Entry "O=c1c(/C=C/c2ccccn2)coc2ccc(Cl)cc12" : reported CC50 at 72 h = ?
Result: > 50 µM

Task: Quick check: CC50 at 72 h of "O=c1c(/C=C/c2ccccn2)coc2ccccc12" ?
Result: > 200 µM

Task: Given "O=c1c(/C=C/c2ccncc2)coc2ccccc12" , state its recorded CC50 at 72 h.
Result: > 100 µM

Task: So what does the record say about CC50 at 72 h for "C1=C(/C=C/c2ccccn2)COc2ccccc21" ?
Result: > 50 µM

Task: What value of CC50 at 72 h has been recorded for this entry: "O=c1c(/C=C\c2cccnc2)coc2ccccc12"
Result: > 200 µM

Task: Sample "Clc1ccc2c(c1)C=C(/C=C/c1ccccn1)CO2" — what was its CC50 at 72 h?
Result: > 50 µM

The origin of these recorded values is ChEMBL document CHEMBL3102715.
